Values were extracted from patent US20060257938A1.

# Procedure details: Probe fluorescence ratio response to linolenic acid relative to ADIFAB2
# Format: binding
# Protocol conditions: response relative to ADIFAB2
Assay endpoint: DR/DR LNA
Answers are plain numbers.

18I 55G 73M 72A (protein, listed as Rattus norvegicus, PEPTIDE (1)...(131) wild-type rat intestinal fatty acid binding protein) AFDGTWKVDRNENYEKFIEKMGINVVKRKLGAHDNLKLTITQEGNKFTVKESSNGRNIDVVFELGVDFAYSAMDGTELTGTWTMEGNKLVGKFKRVDNGKELIAVREISGNELIQTYTYEGVEAKRIFKKE; 1.284

Looking for the measured DR/DR LNA of 51T3, 72A (protein, listed as Rattus norvegicus, PEPTIDE (1)...(131) wild-type rat intestinal fatty acid binding protein) AFDGTWKVDRNENYEKFMEKMGINVVKRKLGAHDNLKLTITQEGNKFTVKTSSNFRNIDVVFELGVDFAYSAADGTELTGTWTMEGNKLVGKFKRVDNGKELIAVREISGNELIQTYTYEGVEAKRIFKKE , can you help? 1.60
